# Test Target: purified human HDAC6 (Homo sapiens, UniProt Q9UBN7)
# Construct: purchased BPS Bioscience 5006
# Sequence (Q9UBN7 1-1215): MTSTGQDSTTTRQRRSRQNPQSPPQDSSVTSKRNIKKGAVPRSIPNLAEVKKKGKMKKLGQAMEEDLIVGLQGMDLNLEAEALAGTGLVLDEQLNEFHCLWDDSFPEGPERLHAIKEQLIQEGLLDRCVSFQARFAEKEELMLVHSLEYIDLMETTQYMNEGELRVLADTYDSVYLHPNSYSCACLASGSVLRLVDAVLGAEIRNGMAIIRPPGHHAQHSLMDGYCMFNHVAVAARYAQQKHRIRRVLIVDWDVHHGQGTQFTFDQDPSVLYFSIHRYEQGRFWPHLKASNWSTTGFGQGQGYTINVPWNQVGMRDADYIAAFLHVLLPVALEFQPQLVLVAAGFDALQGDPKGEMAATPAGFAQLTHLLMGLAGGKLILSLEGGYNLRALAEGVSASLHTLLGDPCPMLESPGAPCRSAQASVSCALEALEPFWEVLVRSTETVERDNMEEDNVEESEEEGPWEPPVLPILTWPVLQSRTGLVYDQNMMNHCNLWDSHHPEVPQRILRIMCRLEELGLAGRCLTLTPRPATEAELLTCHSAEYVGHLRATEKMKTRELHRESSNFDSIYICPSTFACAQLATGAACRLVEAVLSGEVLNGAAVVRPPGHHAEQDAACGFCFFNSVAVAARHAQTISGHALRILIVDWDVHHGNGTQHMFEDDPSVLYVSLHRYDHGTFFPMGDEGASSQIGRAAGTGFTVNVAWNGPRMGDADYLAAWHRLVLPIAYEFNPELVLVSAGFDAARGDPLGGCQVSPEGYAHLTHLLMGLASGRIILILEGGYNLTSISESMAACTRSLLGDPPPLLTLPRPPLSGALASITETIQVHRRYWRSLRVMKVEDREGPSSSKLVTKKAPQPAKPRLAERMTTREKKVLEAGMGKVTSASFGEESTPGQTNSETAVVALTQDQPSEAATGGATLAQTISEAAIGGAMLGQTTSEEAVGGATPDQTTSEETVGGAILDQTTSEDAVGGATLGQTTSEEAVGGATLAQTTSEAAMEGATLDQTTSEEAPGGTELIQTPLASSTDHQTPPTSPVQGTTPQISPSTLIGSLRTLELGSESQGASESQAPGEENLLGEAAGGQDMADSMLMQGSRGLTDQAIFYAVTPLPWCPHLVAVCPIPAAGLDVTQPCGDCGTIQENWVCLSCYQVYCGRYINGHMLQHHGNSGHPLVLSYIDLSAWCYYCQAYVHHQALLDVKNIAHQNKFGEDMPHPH
# Test Description: HDAC6 Enzyme Assay
# Type: biochemical
# Test Context: HDAC6 inhibition at a compound concentration of 0.412 μM; read-out: Percent Inhibition at 0.412 μM
Metric Name: inhibition at 0.412 µM (%)
One number for each entry, in %.

Below, each entry is followed by its recorded inhibition at 0.412 µM result.
compound=O=C(NO)c1ccc2c(c1)CCC[C@@H]2NC(=O)c1cc(-c2ccc(F)cc2)n[nH]1 units_symbol=% result_number=60
compound="CC(=O)Nc1cccc(C2CCc3ccc(C(=O)NO)cc3C2)c1 (centres unmarked)" units_symbol=% result_number=92
compound="CC(C)(C)OC(=O)N1CCC(C(=O)Nc2cc(OC3CCc4cc(C(=O)NO)ccc4C3)ccn2)CC1 (centres unmarked)" units_symbol=% result_number=94
compound="O=C(NO)c1ccc2c(c1)CC(c1ccccc1C(F)(F)F)CC2 (centres unmarked)" units_symbol=% result_number=85
compound="CC(C)(C)C(=O)Nc1cc(OC2CCc3cc(C(=O)NO)ccc3C2)ccn1 (centres unmarked)" units_symbol=% result_number=86
compound="O=C(NO)c1ccc2c(c1)CC(NCc1ccc(Cl)cc1)CC2 (centres unmarked)" units_symbol=% result_number=80

Working through the 4 compounds below one at a time, give inhibition at 0.412 µM for each.
1. O=C(Nc1ccccc1)NC1CCc2ccc(C(=O)NO)cc2C1 (centres unmarked)
2. CC(C)(C)OC(=O)N1CCC(C)(C(=O)Nc2cc(OC3CCc4cc(C(=O)NO)ccc4C3)ccn2)CC1 (centres unmarked)
3. Cn1cc(-c2cc(C(=O)NC3CCc4ccc(C(=O)NO)cc4C3)cc(C(F)(F)F)c2)cn1 (centres unmarked)
4. Cc1nc(C(=O)N2C3CCC2c2cc(C(=O)NO)ccc23)cs1 (centres unmarked)

1. 96
2. 88
3. 94
4. 34

Working through the 3 compounds below one at a time, give inhibition at 0.412 µM for each.
1. CC1(C(=O)N2C3CCC2c2cc(C(=O)NO)ccc23)CCCCC1 (centres unmarked)
2. O=C(NO)c1ccc2c(c1)CCC(NC(=O)C13CC4CC(CC(C4)C1)C3)C2 (centres unmarked)
3. O=C(NO)c1ccc2c(c1)CCCC2NC(=O)c1cc2cc(Cl)ccc2o1 (centres unmarked)

[32, 59, 48]

Working through the 7 compounds below one at a time, give inhibition at 0.412 µM for each.
1. O=C(CC1C[C@@H]2CC[C@H]1C2)NC1CCCc2cc(C(=O)NO)ccc21 (some centres unmarked)
2. O=C(NO)c1ccc2c(c1)CCCC2NC(=O)C12CC3CC(CC(C3)C1)C2 (centres unmarked)
3. CC(C)(C)OC(=O)N1CCC(NC(=O)c2cc(OC3CCc4cc(C(=O)NO)ccc4C3)ccn2)CC1 (centres unmarked)
4. O=C(NO)c1ccc2c(c1)CCCC2NC(=O)C(C1CCCCC1)C1CCCCC1 (centres unmarked)
5. Cc1cc(C)n(CC(=O)NC2CCCc3cc(C(=O)NO)ccc32)n1 (centres unmarked)
6. Cc1oc(S(=O)(=O)N2CCCCC2)cc1C(=O)NC1CCCc2cc(C(=O)NO)ccc21 (centres unmarked)
7. CCc1cc(C(=O)NC2CCCc3cc(C(=O)NO)ccc32)n(C)n1 (centres unmarked)

1. 21
2. 20
3. 88
4. 10
5. 21
6. 36
7. 35

Working through the 6 compounds below one at a time, give inhibition at 0.412 µM for each.
1. CC1(C)CCC(C)(C)c2cc(C(=O)NO)ccc21
2. O=C(NO)c1ccc2c(c1)CCC(NC(=O)C1CCCCC1)C2 (centres unmarked)
3. Cc1ccc(-c2cc(C(=O)NC3CCCc4cc(C(=O)NO)ccc43)[nH]n2)cc1 (centres unmarked)
4. COc1ccccc1C1CCc2cc(C(=O)NO)ccc2C1 (centres unmarked)
5. CC(C)(C)C(=O)N1C2CCC1c1cc(C(=O)NO)ccc12 (centres unmarked)
6. COc1ccccc1-c1cc(C(=O)N[C@H]2CCCc3cc(C(=O)NO)ccc32)[nH]n1

1. 20
2. 56
3. 74
4. 56
5. 29
6. 65

Working through the 7 compounds below one at a time, give inhibition at 0.412 µM for each.
1. Cc1c(C(=O)NC2CCc3cc(C(=O)NO)ccc3C2)cc(-c2ccccc2)n1CCCN1CCOCC1 (centres unmarked)
2. CCOC1CCc2ccc(C(=O)NO)cc2C1 (centres unmarked)
3. CCCC(=O)N1C2CCC1c1cc(C(=O)NO)ccc12 (centres unmarked)
4. O=C(NO)c1ccc2c(c1)CCCC2NC(=O)c1ccc(C(F)(F)F)cc1 (centres unmarked)
5. COc1ccccc1C(=O)NC1CCc2cc(C(=O)NO)ccc2C1 (centres unmarked)
6. O=C(NO)c1ccc2c(c1)CCCC2NC(=O)c1ccsc1 (centres unmarked)
7. Cc1nc(C(F)(F)F)c(C(=O)NC2CCCc3cc(C(=O)NO)ccc32)s1 (centres unmarked)

[82, 75, 25, 30, 88, 36, 22]

Working through the 2 compounds below one at a time, give inhibition at 0.412 µM for each.
1. CC(C)C(C(=O)NC1CCCc2cc(C(=O)NO)ccc21)c1ccccc1 (centres unmarked)
2. O=C(NO)c1ccc2c(c1)CCC(Oc1ccnc(C(=O)NC3CCNCC3)c1)C2 (centres unmarked)

[17, 92]
